Measured viability, T/C accompanies every entry in the list below.
System: SUM149PT spheroids with HUVEC/MSC, viability
protocolSummary: Anticancer human tumor SUM149PT cell line growth inhibition [GQUAD]
studyConditions: second compound 0.316 µM; first compound 0.00316 µM; active compounds read low

| compound | unitsLabel | viability, T/C |
| --- | --- | --- |
| Cc1[nH]c2ccccc2c1CCNCc1ccc(/C=C/C(=O)NO)cc1 + CN(C)c1ccc(Nc2c3ccc(NC(=O)CCN4CCCC4)cc3nc3cc(NC(=O)CCN4CCCC4)ccc23)cc1 | % | 96.8 |
| CC[C@@]1(O)C(=O)OCc2c1cc1n(c2=O)Cc2cc3c(CN(C)C)c(O)ccc3nc2-1 + CN(C)c1ccc(Nc2c3ccc(NC(=O)CCN4CCCC4)cc3nc3cc(NC(=O)CCN4CCCC4)ccc23)cc1 | % | 92.1 |
| Cc1[nH]c2ccccc2c1CCNCc1ccc(/C=C/C(=O)NO)cc1 + Cc1[nH]c2ccc(F)cc2c1-c1nc2c3cccnc3c3ncccc3c2[nH]1 | % | 107 |
| CC[C@@]1(O)C(=O)OCc2c1cc1n(c2=O)Cc2cc3c(CN(C)C)c(O)ccc3nc2-1 + Cc1[nH]c2ccc(F)cc2c1-c1nc2c3cccnc3c3ncccc3c2[nH]1 | % | 99.7 |
| CCc1c2c(nc3ccc(O)cc13)-c1cc3c(c(=O)n1C2)COC(=O)[C@]3(O)CC + Cc1cnc(CNC(=O)c2c(=O)c3ccc(N4CCCN(C)CC4)nc3n3c2sc2ccccc23)cn1 | % | 42.8 |

====

Test system: SUM149PT spheroids with HUVEC/MSC, viability
protocolSummary: Anticancer human tumor SUM149PT cell line growth inhibition [GQUAD]
studyConditions: second compound 0.0316 µM; first compound 3.16 µM; active compounds read low
valueKind: viability, T/C (%)

| molecule | valueKind | unitsLabel | assayResult |
| --- | --- | --- | --- |
| CCCS(=O)(=O)Nc1ccc(F)c(C(=O)c2c[nH]c3ncc(-c4ccc(Cl)cc4)cc23)c1F + CN(C)c1ccc(Nc2c3ccc(NC(=O)CCN4CCCC4)cc3nc3cc(NC(=O)CCN4CCCC4)ccc23)cc1 | viability, T/C | % | 74.5 |
| COc1cc(C2c3cc4c(cc3C(OC3OC5COC(C)OC5C(O)C3O)C3COC(=O)C23)OCO4)cc(OC)c1O (stereo not given) + Cc1[nH]c2ccc(F)cc2c1-c1nc2c3cccnc3c3ncccc3c2[nH]1 | viability, T/C | % | 38.5 |
| C#Cc1c(F)ccc2cc(O)cc(-c3ncc4c(N5CC6CCC(C5)N6)nc(OCC56CCCN5CC(F)C6)nc4c3F)c12 (stereo not given) + Cc1[nH]c2ccc(F)cc2c1-c1nc2c3cccnc3c3ncccc3c2[nH]1 | viability, T/C | % | 57.6 |
| O=C(c1cc(Cc2n[nH]c(=O)c3ccccc23)ccc1F)N1CCN(C(=O)C2CC2)CC1 + CN(C)c1ccc(Nc2c3ccc(NC(=O)CCN4CCCC4)cc3nc3cc(NC(=O)CCN4CCCC4)ccc23)cc1 | viability, T/C | % | 102 |
| CC1COCCN1c1cc(C2(S(C)(=N)=O)CC2)nc(-c2ccnc3[nH]ccc23)n1 (stereo not given) + Cc1cnc(CNC(=O)c2c(=O)c3ccc(N4CCCN(C)CC4)nc3n3c2sc2ccccc23)cn1 | viability, T/C | % | 31.5 |

====

Measured viability, T/C accompanies every entry in the list below.
System: SUM149PT spheroids with HUVEC/MSC, viability
protocolSummary: Anticancer human tumor SUM149PT cell line growth inhibition [GQUAD];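 note: spheroids exposed to drugs for seven days before readout; percent viability relative to DMSO vehicle control taken as 100%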
studyConditions: second compound 0.1 µM; first compound 3.16 µM; active compounds read low

| molecule | viability, T/C (%) |
| --- | --- |
| Nc1ccn(C2OC(CO)C(O)C2(F)F)c(=O)n1 (stereo not drawn) + CN(C)c1ccc(Nc2c3ccc(NC(=O)CCN4CCCC4)cc3nc3cc(NC(=O)CCN4CCCC4)ccc23)cc1 | 23.7 |
| O=C(c1cc(Cc2n[nH]c(=O)c3ccccc23)ccc1F)N1CCN(C(=O)C2CC2)CC1 + CN(C)c1ccc(Nc2c3ccc(NC(=O)CCN4CCCC4)cc3nc3cc(NC(=O)CCN4CCCC4)ccc23)cc1 | 98 |
| CC1COCCN1c1cc(-c2ccnn2C)c2ccnc(-c3ccn[nH]3)c2n1 (stereo not drawn) + Cc1cnc(CNC(=O)c2c(=O)c3ccc(N4CCCN(C)CC4)nc3n3c2sc2ccccc23)cn1 | 20.3 |

====

Measured viability, T/C accompanies every entry in the list below.
Test system: SUM149PT spheroids with HUVEC/MSC, viability
protocolSummary: Anticancer human tumor SUM149PT cell line growth inhibition [GQUAD];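 note: spheroids exposed to drugs for seven days before readout; percent viability relative to DMSO vehicle control taken as 100%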
studyConditions: second compound 10 µM; first compound 0.00999 µM; active compounds read low
valueKind: viability, T/C (%)

| molecule | assayResult |
| --- | --- |
| Cc1[nH]c2ccccc2c1CCNCc1ccc(/C=C/C(=O)NO)cc1 + Cc1cnc(CNC(=O)c2c(=O)c3ccc(N4CCCN(C)CC4)nc3n3c2sc2ccccc23)cn1 | 9.84 |
| CCc1c2c(nc3ccc(O)cc13)-c1cc3c(c(=O)n1C2)COC(=O)[C@]3(O)CC + Cc1[nH]c2ccc(F)cc2c1-c1nc2c3cccnc3c3ncccc3c2[nH]1 | 36.3 |
| CCc1c2c(nc3ccc(O)cc13)-c1cc3c(c(=O)n1C2)COC(=O)[C@]3(O)CC + CN(C)c1ccc(Nc2c3ccc(NC(=O)CCN4CCCC4)cc3nc3cc(NC(=O)CCN4CCCC4)ccc23)cc1 | 49.1 |
| CC[C@@]1(O)C(=O)OCc2c1cc1n(c2=O)Cc2cc3c(CN(C)C)c(O)ccc3nc2-1 + CN(C)c1ccc(Nc2c3ccc(NC(=O)CCN4CCCC4)cc3nc3cc(NC(=O)CCN4CCCC4)ccc23)cc1 | 86.4 |

====

Tested on: SUM149PT spheroids with HUVEC/MSC, viability
protocolSummary: Anticancer human tumor SUM149PT cell line growth inhibition [GQUAD]; active = viability on the fitted dose curve at most 10% of control; inactive = the rest;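 note: spheroids exposed to drugs for seven days before readout; percent viability relative to DMSO vehicle control taken as 100%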
studyConditions: second compound 10 µM; first compound 0.00999 µM
Possible outcomes: Y = active, N = inactive

| compound | assignedCategory |
| --- | --- |
| CCc1c2c(nc3ccc(O)cc13)-c1cc3c(c(=O)n1C2)COC(=O)[C@]3(O)CC + Cc1cnc(CNC(=O)c2c(=O)c3ccc(N4CCCN(C)CC4)nc3n3c2sc2ccccc23)cn1 | Y |
| Cn1ncnc1[C@H]1c2n[nH]c(=O)c3cc(F)cc(c23)N[C@@H]1c1ccc(F)cc1 + Cc1cnc(CNC(=O)c2c(=O)c3ccc(N4CCCN(C)CC4)nc3n3c2sc2ccccc23)cn1 | N |
| CC[C@@]1(O)C(=O)OCc2c1cc1n(c2=O)Cc2cc3c(CN(C)C)c(O)ccc3nc2-1 + Cc1cnc(CNC(=O)c2c(=O)c3ccc(N4CCCN(C)CC4)nc3n3c2sc2ccccc23)cn1 | Y |
| Cn1ncnc1[C@H]1c2n[nH]c(=O)c3cc(F)cc(c23)N[C@@H]1c1ccc(F)cc1 + CN(C)c1ccc(Nc2c3ccc(NC(=O)CCN4CCCC4)cc3nc3cc(NC(=O)CCN4CCCC4)ccc23)cc1 | N |
| Cn1ncnc1[C@H]1c2n[nH]c(=O)c3cc(F)cc(c23)N[C@@H]1c1ccc(F)cc1 + Cc1[nH]c2ccc(F)cc2c1-c1nc2c3cccnc3c3ncccc3c2[nH]1 | N |

====

Tested on: SUM149PT spheroids with HUVEC/MSC, viability
protocolSummary: Anticancer human tumor SUM149PT cell line growth inhibition [GQUAD]; active means viability on the fitted dose curve at most 10% of control; inactive means the rest;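 note: spheroids exposed to drugs for seven days before readout; percent viability relative to DMSO vehicle control taken as 100%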
studyConditions: second compound 10 µM; first compound 10 µM
Possible outcomes: 1 for active, -1 for inactive

| compound | assignedCategory |
| --- | --- |
| O=C(NO)c1cnc(N2CCN(S(=O)(=O)c3ccc4ccccc4c3)CC2)nc1 + Cc1[nH]c2ccc(F)cc2c1-c1nc2c3cccnc3c3ncccc3c2[nH]1 | 1 |
| O=c1[nH]cc(F)c(=O)[nH]1 + Cc1cnc(CNC(=O)c2c(=O)c3ccc(N4CCCN(C)CC4)nc3n3c2sc2ccccc23)cn1 | -1 |
| C=CC(=O)N1CCN(c2nc(=O)n(-c3c(C)ccnc3C(C)C)c3nc(-c4c(O)cccc4F)c(F)cc23)C(C)C1 (stereo not given) + CN(C)c1ccc(Nc2c3ccc(NC(=O)CCN4CCCC4)cc3nc3cc(NC(=O)CCN4CCCC4)ccc23)cc1 | -1 |
| COc1cccc2c1C(=O)c1c(O)c3c(c(O)c1C2=O)CC(O)(C(=O)CO)CC3OC1CC(N)C(O)C(C)O1 (stereo not given) + Cc1cnc(CNC(=O)c2c(=O)c3ccc(N4CCCN(C)CC4)nc3n3c2sc2ccccc23)cn1 | 1 |
| CCCS(=O)(=O)Nc1ccc(F)c(C(=O)c2c[nH]c3ncc(-c4ccc(Cl)cc4)cc23)c1F + CN(C)c1ccc(Nc2c3ccc(NC(=O)CCN4CCCC4)cc3nc3cc(NC(=O)CCN4CCCC4)ccc23)cc1 | -1 |

Entry source: PubChem BioAssay AID2060484
